- assay-target: T1, A56-C-His (recombinant protein A56 with C-terminal His tag, produced in HEK293F cells) (vaccinia virus, UniProt P08714 17-279)
- T1 chain: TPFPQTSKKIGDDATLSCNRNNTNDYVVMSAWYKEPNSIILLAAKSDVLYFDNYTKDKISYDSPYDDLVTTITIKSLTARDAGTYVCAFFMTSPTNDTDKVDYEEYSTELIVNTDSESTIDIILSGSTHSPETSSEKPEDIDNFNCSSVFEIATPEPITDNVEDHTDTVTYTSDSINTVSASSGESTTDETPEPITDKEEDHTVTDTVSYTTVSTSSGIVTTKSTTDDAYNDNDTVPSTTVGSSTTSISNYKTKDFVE
readout: koff (s⁻¹)
Numeric only. Scale: s⁻¹

**Query** Report koff for anti-A56 antibody Ab16 (antibody, V domains shown, also called SA2041; A56-02B08) VH: QVQLQQSGPGLVKPSQTLSLTCAISGDSVSSNSAAWNWIRQSPSRGLEWLGRTYYRSKWYNDYAVSVKSRITINPDTSKNQFSLQLNSVTAVDTAVYYCAKSYAGPISYYYYGLDVWGQGTTVTVSS VL: QSALTQPASVSGSPGQSVTISCTGTSSDIGRYNLVSWYQQHPGKAPKLMIYGGSKRPSGVSNRFSGSNSDNTASLTISGLRAEDEADYYCSSYASSSTPYVFGTGTKVTVL please.
**Result** 0.000561

**Query** Given the entry anti-A56 antibody Ab19 (antibody, V domains shown, also called SA2044; A56-02C07) VH: QVQLVESGAEVRRPGSSVKVSCKTSGVTFSGYVLSWVRQAPGHGLEWMGRIIPLIDVENYAREFQGRMKITADKSTNTVYMELNNLRSEDTAVYYCAKSVVRGLDYYYYGFDVWGQGTTVTVSS VL: SYELTQPPSLSVAPGKTARITCGGNNIGSKSVHWYQQKPGQAPRLVTYYDGNRPSGIPERFSGSNSGNTATLIISRVEAGDEADYYCQVWDSSSDQGVFGTGTKVTVL , report its measured koff.
**Result** 2.47e-05

**Query** I'd like to know its koff. The binder in question is anti-A56 antibody Ab13 (antibody, V domains shown, also called SA2038; A56-02A02) VH: QMQLVESGAEVKKTGSSVKVSCKASGDTLTYRFLHWVRQAPGQAPEWMGWITPFNDNTNYAQKFQDRVTITRDRSMSTAYMELSSLRSEDTAVYYCATGGGNNYYGMEVWGQGTPITVSS VL: SYELTQPLSLSVSPGQTASITCSGDKLGDKFTSWYQQQPGQSPVLVIYQDAKRPSGIPERFSGSNSGSTATLTISGTQSMDEADYYCQAWDSSSVVFGGGTKLTVL
**Result** 8.26e-05

**Query** Fill blank: measured koff of the binder anti-A56 antibody Ab18 (antibody, V domains shown, also called SA2043; A56-02C06) VH: QVQLVESGGGLVQPGKSLRLSCAASGFTFSTYGMTWVRQAPGKGLEWVSGISGGGSSTNYADSVKGRFIISRDNSNNTLYLQMNSLRAEDTAVYYCARWGVMLSFDYWGQGTPVTVSS VL: DIQMTQSPSTLPASVGDRVTITCRASYSVSPWLAWYQQKPGKAPKLLIYKASTLESGVPSRFSGSGSGTEFTLTISSLQPDDFATYYCQQFNSYMMYTFGQGTKLEIK is ____.
**Result** 1.96e-05

Source listed as patent US20240156865A1.
